Provenance of the data: the supplement of paper PMC10567573

B1: LMNB1 (parent)
chain: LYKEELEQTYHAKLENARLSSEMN

Variants of: B1
Assay: protein stability index of a GFP-peptide fusion (GPS, HEK-293T) (PSI 1-6); higher = more stable;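 further: lentivirally expressed fusions sorted by FACS into six bins by GFP to DsRed ratio, PSI derived from sequencing read proportions per bin multiplied by bin number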
Conditions: c terminus: a fixed tail appended
// reported protein stability index for each item listed
Give your answer as a number; write no unit.

Some solved entries appear below for comparison.
M23C	2.76
Q8M	2.5
M23I	2.6

Query: Look up protein stability index of `M23W` and report it.
Result: 2.58

Query: // fetch protein stability index given entry `S21C`
Result: 2.02
